Tested system: T1, AFP158/HLA-A*02:01 complex (human)
T1 construct: flowed as analyte in SPR
Method: SPR, fold vs AS170036 VL1VH1;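 also: crude scFv muteins immobilised on a sensor chip, peptide–MHC complex passed over at several concentrations, binding then buffer-driven dissociation, KD estimated from on- and off-rates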
Measurement label: Affinity increase (fold)
Expressed in fold, but write only the number.

Binder | Affinity increase, fold
AS170036 VL1VH1-57K98I108D (scFv, also called 71-AS170036 VL1VH1-57K98I108D) scFv: QSALTQPRSVSGSPGQSVTISCAGTSSDVGSENYVSWYQQHPGKAPKLMIYQVNKRASGVPDRFSGSKSGNTASLTISGLQAEDEADYYCASYRSSDINIVFGGGTKLTVLGGGGSGGGGSGGGGSEVQLVESGGGLVQPGGSLRLSCAASGFTFSSYAMSWVRQAPGKGLEWVSTINSGTGKPYYADSVKGRFTISRDNSKNTLYLQMNSLRAEDTAVYYCAKNFFDGSWFLDPPAMDYWGQGTLVTVSSHHHHHH | 38.7

Here's the next entry for you.
### Prompt Look up Affinity increase: AS170036 VL1VH1-56N98I108S (scFv, also called 54-AS170036 VL1VH1-56N98I108S) scFv: QSALTQPRSVSGSPGQSVTISCAGTSSDVGSENYVSWYQQHPGKAPKLMIYQVNKRASGVPDRFSGSKSGNTASLTISGLQAEDEADYYCASYRSSDINIVFGGGTKLTVLGGGGSGGGGSGGGGSEVQLVESGGGLVQPGGSLRLSCAASGFTFSSYAMSWVRQAPGKGLEWVSTINSGTNSPYYADSVKGRFTISRDNSKNTLYLQMNSLRAEDTAVYYCAKNFFDGSWFLSPPAMDYWGQGTLVTVSSHHHHHH
### Response 22.3
